Tested on: K562
Assay Name: NCI tumour cell line growth inhibition, 48 h
Calls of active or inactive are those of the source. No stated cut-off is given here; in the data, active = GI50 up to about 1.1 µM and inactive = higher.
Outcomes: 1 = active, 0 = inactive

- Compound: "CC(=O)OC(=C(C#N)C#N)c1nccnc1C(=O)O"
  Answer Label: 0
- Compound: "O=C(O)C1(C(=O)O)CCN(S(=O)(=O)c2ccccc2)CC1"
  Answer Label: 0
- Compound: "CC1(C)OC2OC(COC(=O)c3ccc(C#N)cc3)C3OC(C)(C)OC3C2O1 (stereo unspecified)"
  Answer Label: 0
- Compound: "COc1ccc(OC)c(NC(=O)CCC/C(CC(=O)c2ccc(O)c(OC)c2)=N\\Nc2ccc([N+](=O)[O-])cc2)c1"
  Answer Label: 0
- Compound: "Cc1csc2nc(-c3ccncc3)cn12"
  Answer Label: 0
- Compound: "CC1(C)COP(=S)(c2ccccn2)O[C@@H]1c1ccccc1 (stereo partly specified)"
  Answer Label: 0
- Compound: "CC1OC(OCC2OC(Oc3ccc(C4CC(=O)c5c(O)cc(O)cc5O4)cc3O)C(O)C(O)C2O)C(O)C(O)C1O (stereo unspecified)"
  Answer Label: 0
- Compound: "CNC1=C(C)C(=O)C2=C(C1=O)C(COC(N)=O)C1(OC)C3NC3CN21 (stereo unspecified)"
  Answer Label: 0
- Compound: "O=c1nc(/C=C/c2ccccc2Cl)cc2n1CCN2CCO"
  Answer Label: 0
- Compound: "COc1cccc2c1cc([N+](=O)[O-])c1c(C(=O)O)cc3c(c12)OCO3"
  Answer Label: 0
- Compound: "O=C1c2ccccc2N2OC3(N4CCOCC4)CCCC3C12c1ccccc1 (stereo unspecified)"
  Answer Label: 0
- Compound: "O=C(CC(O)(C(F)(F)F)C(F)(F)F)c1cccs1"
  Answer Label: 0
- Compound: "Cc1cccc2c1c(=O)c1c(O)cc3c(c1n2C)C=CC(C)(C)O3"
  Answer Label: 0
- Compound: "CNS(=O)(=O)NN(C)S(=O)(=O)c1ccc(F)cc1"
  Answer Label: 0
- Compound: "CCN1CN(c2ccccc2)C2(CCN(CC(CC3OCCO3)c3ccc(F)cc3)CC2)C1=O (stereo unspecified)"
  Answer Label: 0
- Compound: "CC[C@@]1(O)C(=O)OCc2c1cc1n(c2=O)Cc2cc3c(NC(=O)CN)cccc3nc2-1"
  Answer Label: 0
- Compound: "CC(C)Oc1cccc(N2C(NCCc3c[nH]c4ccccc34)=Nc3ccncc3S2(=O)=O)c1"
  Answer Label: 0
- Compound: "C/C(=C\\COP(=O)(O)OP(=O)(O)O)CC/C=C(\\C)CNc1ccc([N+](=O)[O-])cc1"
  Answer Label: 0
- Compound: "Cc1noc(NC(=O)Nc2ccccc2F)c1C#N"
  Answer Label: 0
- Compound: "Cc1ccc2c(O)c3c(cc2c1)C(=O)c1c2c(cc(O)c1C3=O)C1(C)OC(O2)C(O)C(N(C)C)C1O (stereo unspecified)"
  Answer Label: 1
- Compound: "CCOC1(OCC)C2C=CC1C(COS(=O)(=O)c1ccc(C)cc1)C2COS(=O)(=O)c1ccc(C)cc1 (stereo unspecified)"
  Answer Label: 0
